# study_system: HTR1F (Homo sapiens)
# Construct: purchased Promega (in-house HiBiT-GPCR construct library, NanoBRET)
# Sequence (P30939 whole entry): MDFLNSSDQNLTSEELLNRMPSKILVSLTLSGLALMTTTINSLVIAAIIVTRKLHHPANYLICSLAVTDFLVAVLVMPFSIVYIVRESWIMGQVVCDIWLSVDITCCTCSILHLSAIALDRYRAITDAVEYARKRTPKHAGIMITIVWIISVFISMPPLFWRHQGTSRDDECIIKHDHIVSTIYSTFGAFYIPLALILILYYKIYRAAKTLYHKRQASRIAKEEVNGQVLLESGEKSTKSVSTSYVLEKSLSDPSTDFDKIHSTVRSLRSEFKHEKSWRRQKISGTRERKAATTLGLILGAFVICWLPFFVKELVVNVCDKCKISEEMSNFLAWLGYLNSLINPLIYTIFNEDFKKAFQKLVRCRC
# protocol_details: NanoBRET screen HiBiT-HTR1F in HEK293
# Format: binding
# measurement_conditions: HTR1F; tracer 1μM
# NanoBRET Fold Response >= 1 gives yes, anything below gives no

Some solved entries appear below for comparison.
Exercise: Determine whether measured NanoBRET Fold Response meets or exceeds 1 for COc1ccccc1N1CCN(CCCCN2C(=O)c3ccc(CNC(=O)CCOCCNC(=O)c4ccc(CNC(=O)CCc5ccc6n5[B-](F)(F)[N+]5=C(c7ccc[nH]7)C=CC5=C6)cc4)cc3C2=O)CC1 [NAN-190-3-NB590]
Solution: yes

Exercise: Quick one: O=C(CCc1ccc2n1[B-](F)(F)[N+]1=C(c3ccc[nH]3)C=CC1=C2)NCCOCCOCCNC(=O)OCCOCCN1CCN(C2=Nc3ccccc3Sc3ccccc32)CC1 [Quetiapine-a-2-NB590]
Solution: no

Exercise: Check N#CN=C(NCCCOc1cccc(CN2CCCCC2)c1)NCCNC(=O)CCOCCOCCOCCOCCNC(=O)CCc1ccc2n1[B-](F)(F)[N+]1=C(c3ccc[nH]3)C=CC1=C2 [Aminopotentidine-2-NB590] too.
Solution: yes

Exercise: Now the same for CC(C)N(CC[C@H](c1ccccc1)c1cc(CCNC(=O)CCOCCOCCOCCOCCNC(=O)CCc2ccc3n2[B-](F)(F)[N+]2=C(c4ccc[nH]4)C=CC2=C3)ccc1O)C(C)C [Tolterodine-2-NB590]
Solution: yes

Exercise: Now give it for Cc1nc2n(c(=O)c1CCN1CCC(c3noc4cc(F)ccc34)CC1)CCCC2OC(=O)NCCOCCOCCOCCOCCNC(=O)CCc1ccc2n1[B-](F)(F)[N+]1=C(c3ccc[nH]3)C=CC1=C2 (stereo not drawn) [Risperidone-2-NB590] too.
Solution: yes

Now take the following molecule into account.
Exercise: Determine whether measured NanoBRET Fold Response meets or exceeds 1 for CCCn1c(=O)c2[nH]c(-c3ccc(OCC(=O)NCCNC(=O)CCOCCNC(=O)c4ccc(CNC(=O)CCc5ccc6n5[B-](F)(F)[N+]5=C(c7ccc[nH]7)C=CC5=C6)cc4)cc3)nc2n(CCC)c1=O [XAC-3-NB590]
Solution: yes
